Literature pIC50 values, system: IRAK4 (Homo sapiens (Human)).
Answers are plain numbers, as −log10 of the molar value.

1. CC(C)Nc1cc(-n2ncc3cc(C#N)cnc32)ncc1-c1cn(CC#N)nn1: 7.80
2. COc1cc2nn([C@H]3CC[C@H](CN(C)CCC4CCN(C(=O)c5ccc(Cl)c(N6CCC(=O)NC6=O)c5)CC4)CC3)cc2cc1NC(=O)c1cccc(C(F)(F)F)n1: 8.47
3. CC12CC(c3cn4cc(C(=O)Nc5cccn([C@@H]6C[C@@H]6F)c5=O)c(OC5CC5)cc4n3)(CO1)C2 (racemic): 9.15

Batch request: pIC50 for each of the following compounds.
1. CC(C)(CO)Nc1cc(-c2cnn3cc(C#N)cnc23)ncc1C(=O)NC[C@@H](F)C(C)(C)O
2. CC(C)Nc1cc(-n2ncc3cc(C#N)cnc32)ncc1-c1cn(CCN(C)C)nn1
3. COc1cc2nn([C@H]3C[C@@H]4C[C@H]3CN4C)cc2cc1NC(=O)c1cccc(C(F)(F)F)n1 (relative stereo)

RESULT:
8.52
8.40
8.05
